// provenance: PubChem BioAssay AID1159580

- protocol.notes: chemical genetic growth profiling, strain panel (AID 1159580);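 also: tested at 20 µM; growth read once vehicle control cultures reached saturation at 30 °C; 1 = growth at the plate median or of vehicle wells; lower values mean less growth of the strain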
- condition.description: S. cerevisiae deletion strains, growth OD, locus YDL192W, strain arf1, hits give low values
Among all 5,500 compounds or so, about 2,000 (36%) were called active. About 18% were inconclusive and are not listed. The list shows a part of the results.
Exercise: state measured normalized growth for each of the compounds provided.
One number for each entry.

As a guide, the following entries are already answered.
{"compound": "COc1ccc2c(c1)c(CC(=O)OCC(=O)O)c(C)n2C(=O)c1ccc(Cl)cc1", "normalized growth": 1.02}
{"compound": "Cc1cc(O)c2c(c1)Cc1cccc(O)c1C2=O", "normalized growth": 1.02}
{"compound": "COC(=O)Nc1nc2ccc(Sc3ccccc3)cc2[nH]1", "normalized growth": 1}
{"compound": "COc1ccc2c(c1)c(CC(=O)O)c(C)n2C(=O)c1ccc(Cl)cc1", "normalized growth": 0.998}

Below are some compounds; for each one, tell me its normalized growth.
1. O=C1c2c(O)cccc2Cc2cccc(O)c21
2. Cc1ccc(S(=O)(=O)NC(=O)NN2CC3CCCC3C2)cc1 (stereo unspecified)

1. 0.994
2. 1.01

----------
Exercise: state measured normalized growth for each of the compounds provided.
- protocol.notes: chemical genetic growth profiling, strain panel (AID 1159580)
- condition.description: S. cerevisiae deletion strains, growth OD, locus YOR080W, strain dia2, hits give low values
About 2,000 (36%) of roughly 5,500 compounds were called active. Another 18% or so got no clear call; they are omitted. This is one part of the list.
Numbers only.

{"compound": "CC(CC(=O)C(O)C(C)(C)O)C1C(=O)CC2(C)C3=CCC4C(C)(C)C(OC5OCC(O)C(O)C5O)CCC45CC35C(O)CC12C (centres undefined)", "quantity.measured": "normalized growth", "number": 1.02}
{"compound": "CC(=O)O[C@H]1CC[C@@]2(C)C(CC[C@]3(C)C2CC=C2C4CC(C)(C)CC[C@]4(C)CC[C@]23C)C1(C)C (some centres undefined)", "quantity.measured": "normalized growth", "number": 1}
{"compound": "CC(=O)O[C@@H]1CC[C@@]2(C)C(CC[C@]3(C)C2CC=C2C4CC(C)(C)CC[C@]4(C(=O)O)CC[C@]23C)C1(C)C (some centres undefined)", "quantity.measured": "normalized growth", "number": 1}

Next, consider the following compound.
Return value of normalized growth for input CC1(C)CC[C@]2(C(=O)O)CC[C@]3(C)C(=CCC4[C@@]5(C)CC[C@H](O)[C@@](C)(CO)C5CC[C@]43C)C2C1 (some centres undefined) , no commentary. 1.03

----------
- protocol.notes: chemical genetic growth profiling, strain panel (AID 1159580)
- condition.description: S. cerevisiae deletion strains, growth OD, locus YIL147C, strain SLN1, hits give low values
Screen size: about 5,500 compounds; about 2,000 (36%) were called active. Roughly 18% stayed inconclusive and do not appear here. The list shows a part of the results.
quantity.measured: normalized growth
One number for each entry.

As a guide, the following entries are already answered.
{"compound": "CC(C)Cc1ccc(C(C)C(=O)Nc2nn(C)c3ccccc23)cc1 (stereo unspecified)", "quantity.measured": "normalized growth", "number": 0.989}
{"compound": "O=C(NCC(c1ccccc1)c1c[nH]c2ccccc12)c1ccc(C(F)(F)F)cc1 (stereo unspecified)", "quantity.measured": "normalized growth", "number": 0.985}
{"compound": "O=C(NCCNc1ncc(Cl)cc1C(F)(F)F)C(F)(F)Sc1ccccc1", "quantity.measured": "normalized growth", "number": 0.986}
{"compound": "Clc1cc(Cl)cc(-c2nc(SCc3ccc(Cl)cc3Cl)n[nH]2)c1", "quantity.measured": "normalized growth", "number": 0.992}
{"compound": "O=C(NCCNc1ncc(C(F)(F)F)cc1Cl)C(F)(F)Sc1ccccc1", "quantity.measured": "normalized growth", "number": 0.974}

Below are some compounds; for each one, tell me its normalized growth.
1. O=C(c1cccs1)N(Cc1cccnc1)Cc1ccc(Cl)cc1Cl
2. Cc1nc(-c2ccccn2)[nH]c(=O)c1Cc1c(Cl)cccc1Cl
3. CCCc1nc(-c2ccccn2)[nH]c(=O)c1CC1CC1
4. O=S(=O)(c1ccc(Cl)cc1)N(Cc1cccnc1)Cc1ccc(Cl)cc1Cl
5. Fc1ccc(NC(=S)N2CCCN(Cc3ccc(Cl)cc3Cl)CC2)cc1

[0.964, 0.946, 0.945, 0.939, 0.977]

Return value of normalized growth for input CSc1n[nH]c(-c2cc(C(F)(F)F)cc(C(F)(F)F)c2)n1 , no commentary. 0.941

----------
Exercise: state measured normalized growth for each of the molecules provided.
- protocol.notes: chemical genetic growth profiling, strain panel (AID 1159580)
- condition.description: S. cerevisiae deletion strains, growth OD, locus YDR226W, strain ADK1, hits give low values
Out of some 5,500 compounds screened, about 2,000 (36%) were called active. About 18% were inconclusive and are not listed. This is one part of the list.

{"molecule": "CCOC(=O)c1cc(CC)sc1NC(=O)c1ccc([N+](=O)[O-])o1", "normalized growth": "0.985 (inactive)"}
{"molecule": "CC(C)Cc1ccc(C(C)C(=O)Nc2nn(C)c3ccccc23)cc1 (stereo unspecified)", "normalized growth": "0.991 (inactive)"}

Below are some molecules; for each one, tell me its normalized growth.
1. O=C(CSCc1csc2ccccc12)Nc1ccc(F)c(Cl)c1
2. O=C(Nc1ccccc1Sc1ccc([N+](=O)[O-])cc1[N+](=O)[O-])C(Cl)(Cl)Cl
3. O=S(=O)(NC(=S)Nc1ccc(Cl)c(Cl)c1)c1ccccc1
4. Brc1ccc2[nH]c3c(c2c1)CCC3

["0.986 (inactive)", "0.965 (inactive)", "0.991 (inactive)", "0.96 (inactive)"]

----------
- protocol.notes: chemical genetic growth profiling, strain panel (AID 1159580);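 also: tested at 20 µM; growth read once vehicle control cultures reached saturation at 30 °C; 1 = growth at the plate median or of vehicle wells; lower values mean less growth of the strain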
- condition.description: S. cerevisiae deletion strains, growth OD, locus YOR290C, strain snf2
Out of some 5,500 compounds screened, about 2,000 (36%) were called active. About 18% were inconclusive and are not listed. Rule as the data show it: active = normalized growth mostly below about 0.91 (no sharp cut-off); inconclusive = no clear call, values can overlap the other calls; inactive = mostly above about 0.92. The list shows a part of the results.
Permitted responses: T = active, F = inactive

Completed entries (count: 4):
{"compound": "N#CC(O[C@@H]1O[C@H](CO[C@@H]2O[C@H](CO)[C@@H](O)[C@H](O)[C@H]2O)[C@@H](O)[C@H](O)[C@H]1O)c1ccccc1 (stereo not given in full)", "discrete.label": "F"}
{"compound": "Cc1ccc(S(=O)(=O)NC(=O)NN2CC3CCCC3C2)cc1 (stereo not given)", "discrete.label": "F"}
{"compound": "Cc1ccc(-c2cc(C(F)(F)F)nn2-c2ccc(S(N)(=O)=O)cc2)cc1", "discrete.label": "F"}
{"compound": "COC(=O)Nc1nc2ccc(S(=O)c3ccccc3)cc2[nH]1 (stereo not given)", "discrete.label": "F"}

Then there is this compound:
Recorded test outcome, item O=c1[nH]cc(F)c(=O)[nH]1 T

----------
- protocol.notes: chemical genetic growth profiling, strain panel (AID 1159580);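 also: tested at 20 µM; growth read once vehicle control cultures reached saturation at 30 °C; 1 = growth at the plate median or of vehicle wells; lower values mean less growth of the strain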
- condition.description: S. cerevisiae deletion strains, growth OD, locus YPR141C, strain kar3, hits give low values
Screen size: about 5,500 compounds; about 2,000 (36%) were called active. Another 18% or so got no clear call; they are omitted. This is one part of the list.
quantity.measured: normalized growth
Numbers only.

{"molecule": "NC(N)=N/N=C/c1c(Cl)cccc1Cl", "quantity.measured": "normalized growth", "number": 1.02}
{"molecule": "C/C=C(/C)C(=O)OC1CCC2(C)C3CCC4C5(O)CC(O)C6(O)C(CN7CC(C)CCC7C6(C)O)C5(O)CC42OC13O (stereo not given)", "quantity.measured": "normalized growth", "number": 0.978}
{"molecule": "CC(C)CC(N(C)C)C1(c2ccc(Cl)cc2)CCC1 (stereo not given)", "quantity.measured": "normalized growth", "number": 1.01}
{"molecule": "COc1cc(C(=O)O[C@H]2CC[C@@]3(C)[C@@H]4CC[C@H]5[C@]6(O)C[C@H](O)[C@@]7(O)[C@@H](CN8C[C@@H](C)CC[C@H]8[C@@]7(C)O)[C@]6(O)C[C@@]53O[C@]24O)cc(OC)c1OC", "quantity.measured": "normalized growth", "number": 0.981}
{"molecule": "CC(=O)NCc1c(I)c(NC(C)=O)c(I)c(C(=O)O)c1I", "quantity.measured": "normalized growth", "number": 0.986}

Below are some molecules; for each one, tell me its normalized growth.
1. O=c1[nH]cc(F)c(=O)[nH]1
2. O=c1oc2cc(O)ccc2s1
3. CC(C)(Oc1ccc(CCNC(=O)c2ccc(Cl)cc2)cc1)C(=O)O
4. Cc1cc(O)cc(O)c1C(=O)O

1.03
0.933
1.01
0.973

----------
- protocol.notes: chemical genetic growth profiling, strain panel (AID 1159580);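 also: tested at 20 µM; growth read once vehicle control cultures reached saturation at 30 °C; 1 = growth at the plate median or of vehicle wells; lower values mean less growth of the strain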
- condition.description: S. cerevisiae deletion strains, growth OD, locus YER002W, strain NOP16, hits give low values
Hit rate of the full screen: of about 5,500 compounds, about 2,000 (36%) were called active. Not shown: some 18% with an inconclusive outcome. Some of the results follow.
Exercise: state measured normalized growth for each of the compounds provided.
Answers are plain numbers.

As a guide, the following entries are already answered.
{"compound.structure.string": "Cc1cc(C)c(NC(=O)C[C@H](CC(=O)O)c2cccc3ccccc23)c(C(=O)N2CCC3(CCCC3)CC2)c1", "normalized growth": 0.975}
{"compound.structure.string": "O=c1[nH]cc(F)c(=O)[nH]1", "normalized growth": 1.04}
{"compound.structure.string": "NCc1cc(=O)[nH]o1", "normalized growth": 1.02}
{"compound.structure.string": "N=S(=O)(O)Cc1noc2ccccc12", "normalized growth": 1.01}

Below are some compounds; for each one, tell me its normalized growth.
1. CC(=O)[C@]1(O)Cc2c(O)c3c(c(O)c2[C@@H](O[C@H]2C[C@H](N)[C@H](O)[C@H](C)O2)C1)C(=O)c1ccccc1C3=O
2. COc1cc(-c2ccc(=O)[nH]n2)ccc1OC(F)F

[0.193, 1]
